Molecular target: acetylcholinesterase (AChE) (Electrophorus electricus)
Sequence (O42275 24-633): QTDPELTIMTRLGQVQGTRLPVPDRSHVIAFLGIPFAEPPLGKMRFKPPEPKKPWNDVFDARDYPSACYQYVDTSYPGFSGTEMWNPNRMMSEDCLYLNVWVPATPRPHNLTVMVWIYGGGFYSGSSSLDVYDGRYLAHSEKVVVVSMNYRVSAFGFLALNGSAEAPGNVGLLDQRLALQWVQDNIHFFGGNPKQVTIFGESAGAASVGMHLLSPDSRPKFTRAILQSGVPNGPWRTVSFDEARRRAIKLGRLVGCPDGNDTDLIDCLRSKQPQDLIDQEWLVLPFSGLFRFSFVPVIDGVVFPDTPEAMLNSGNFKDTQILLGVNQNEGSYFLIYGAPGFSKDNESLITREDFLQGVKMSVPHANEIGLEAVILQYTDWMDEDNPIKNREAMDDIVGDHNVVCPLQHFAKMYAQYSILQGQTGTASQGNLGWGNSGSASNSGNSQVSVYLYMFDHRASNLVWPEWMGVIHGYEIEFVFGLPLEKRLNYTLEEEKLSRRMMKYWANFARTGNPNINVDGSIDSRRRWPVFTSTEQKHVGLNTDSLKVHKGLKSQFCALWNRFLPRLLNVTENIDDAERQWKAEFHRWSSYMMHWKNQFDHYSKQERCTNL
MEASURE NAME: pIC50
FYI, pIC50 means -log10 of a concentration in mol per litre.

Look at this compound and give its reported pIC50. COc1ccc2c(c1O)-c1c(O)c(OC)cc3c1[C@H](C2)[N+](C)(C)CC3
8.00

###

Test: DMPD radical scavenging (505 nm)
Under this convention, Condition met denotes DMPD^•+ Scavenging IC50 strictly below 9 µg/mL and Condition not met denotes DMPD^•+ Scavenging IC50 at or above 9 µg/mL.

See these solved cases before continuing.
INSERT INTO results (molecule, assigned_class) VALUES
  ('COc1ccc(O)c(C(C)(C)C)c1 [BHA, butylated hydroxyanisole]', 'Condition not met'),
  ('COc1ccc2c(c1O)-c1c(O)c(OC)cc3c1[C@H](C2)[N+](C)(C)CC3', 'Condition not met'),
  ('Cc1cc(C(C)(C)C)c(O)c(C(C)(C)C)c1 [BHT, butylated hydroxytoluene]', 'Condition met'),
  ('Cc1c(C)c2c(c(C)c1O)CCC(C)(C(=O)O)O2 (centres unmarked)', 'Condition met');

Please turn your attention to the following entry.
Please let me know if Cc1c(C)c2c(c(C)c1O)CC[C@@](C)(CCC[C@H](C)CCC[C@H](C)CCCC(C)C)O2 shows DMPD^•+ Scavenging IC50 below 9 µg/mL.
Condition met

Value source: paper PMC9502953
